This section presents binders with their documented MFI at 33.3 nM values.
biological target: CD28 (human) (UniProt P10747); experiment: flow cytometry, Jurkat cells (CD28)
Field format: number, assumed MFI, no unit text.

Please review the entries below; each comes with its answer.
binder="variant CD80 IgV-Fc (inert) H18F/A26D/E35D/D46E/M47T/V68M/A71G/D90G (Fc fusion) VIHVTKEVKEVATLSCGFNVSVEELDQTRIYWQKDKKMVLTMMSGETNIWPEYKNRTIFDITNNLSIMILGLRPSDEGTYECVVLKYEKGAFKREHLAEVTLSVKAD" assay_readout="MFI at 33.3 nM" unit_descriptor=MFI test_result=6030
binder="CD80 ECD (SEQ ID NO:2)-Fc (inert) with GSG4S linker (Fc fusion) VIHVTKEVKEVATLSCGHNVSVEELAQTRIYWQKEKKMVLTMMSGDMNIWPEYKNRTIFDITNNLSIVILALRPSDEGTYECVVLKYEKDAFKREHLAEVTLSVKADFPTPSISDFEIPTSNIRRIICSTSGGFPEPHLSWLENGEELNAINTTVSQDPETELYAVSSKLDFNMTTNHSFMCLIKYGHLRVNQTFNWNTTKQEHFPDNGSGGGGS" assay_readout="MFI at 33.3 nM" unit_descriptor=MFI test_result=37
binder="variant CD80 IgV-Fc (inert) H18L/A26N/D46E/V68M/A71G/D90G (Fc fusion) VIHVTKEVKEVATLSCGLNVSVEELNQTRIYWQKEKKMVLTMMSGEMNIWPEYKNRTIFDITNNLSIMILGLRPSDEGTYECVVLKYEKGAFKREHLAEVTLSVKAD" assay_readout="MFI at 33.3 nM" unit_descriptor=MFI test_result=7250
binder="CD80 T13R/Q33R/E35D/M47L/V68M IgV-Fc (Fc fusion) VIHVTKEVKEVARLSCGHNVSVEELAQTRIYWRKDKKMVLTMMSGDLNIWPEYKNRTIFDITNNLSIMILALRPSDEGTYECVVLKYEKDAFKREHLAEVTLSVKAD" assay_readout="MFI at 33.3 nM" unit_descriptor=MFI test_result=14.1
binder="variant CD80 IgV-Fc (inert) H18Y/A26P/E35D/M47I/V68M/A71G (Fc fusion) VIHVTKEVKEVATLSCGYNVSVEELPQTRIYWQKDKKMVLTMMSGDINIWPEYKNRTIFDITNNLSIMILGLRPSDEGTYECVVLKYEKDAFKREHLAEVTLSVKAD" assay_readout="MFI at 33.3 nM" unit_descriptor=MFI test_result=5120

Field request: MFI at 33.3 nM | item: CD80 T13R/Q33R/E35D/M38I/M47L/V68M/E95V/L97Q IgV-Fc (Fc fusion) VIHVTKEVKEVARLSCGHNVSVEELAQTRIYWRKDKKIVLTMMSGDLNIWPEYKNRTIFDITNNLSIMILALRPSDEGTYECVVLKYEKDAFKRVHQAEVTLSVKAD
1110

Need MFI at 33.3 nM, item variant CD80 IgV-Fc (inert) H18Y/E35D/M47V/V68M/A71G (Fc fusion) VIHVTKEVKEVATLSCGYNVSVEELAQTRIYWQKDKKMVLTMMSGDVNIWPEYKNRTIFDITNNLSIMILGLRPSDEGTYECVVLKYEKDAFKREHLAEVTLSVKAD
3230

Recorded MFI at 33.3 nM for CD80 IgV-Fc H18Y/E35D/M47V/V68M/L85M (Fc fusion) VIHVTKEVKEVATLSCGYNVSVEELAQTRIYWQKDKKMVLTMMSGDVNIWPEYKNRTIFDITNNLSIMILALRPSDEGTYECVVMKYEKDAFKREHLAEVTLSVKAD , please?
1390
